What %Inh was measured for each of the following?
- System: CDK4;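 note: KINOMEscan kinase panel screen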
- particulars: concentration: 1 μM, replicates: in singlicate; n = 1
Answers are plain numbers, in %.

Reference set (5 entries):
> print(dat)
                                   compound  subject.of.test  unit.abbrev  val
1  Cc1cccc(Nc2nc(N[C@H]3CCNC3)ncc2C(N)=O)c1.Cl             CDK4            %    0
2  COCCOCCOc1cc2ncc3c4ccc(C#N)cc4[nH]c3c2cc1OC             CDK4            %    0
3  Cc1ccc(C(=O)Nc2ccc(Nc3ccnc4cc(-c5nccs5)ccc34)cc2O)cc1.Cl             CDK4            %   43
4  O=C(Nc1ccccc1F)NC1CCN(c2ccnc(Nc3ccc(F)cc3)n2)CC1             CDK4            %   28
5  CN(c1ccc(NC(=O)Nc2cc(C(F)(F)F)ccc2F)cc1)c1ccnc(Nc2ccc(S(N)(=O)=O)cc2)n1             CDK4            %    0

Hi there! I need %Inh for each item below, if you can.
1. CC(C)c1nc(-c2cccc(NS(=O)(=O)c3c(F)cccc3F)c2F)c(-c2ccnc(Nc3ccc(N4CCOCC4)nc3)n2)s1
2. Cl.c1ccc(-c2ccc3c(Nc4ccc5[nH]ncc5c4)ccnc3c2)nc1
3. Cc1ccc(S(=O)(=O)Nc2ccc(Nc3nccc(Nc4cccc5[nH]ncc45)n3)cc2)cc1
4. Cl.Cl.NCC(C(=O)Nc1cc(Br)c(-c2ccnc3[nH]ccc23)s1)c1ccccc1 (centres unmarked)
5. O=C(Nc1n[nH]c2nc(-c3ccc(O)cc3)ccc12)C1CC1

Result:
[96.3, 0, 15, 15, 0]

Hi there! I need %Inh for each item below, if you can.
1. CC(=O)N1CCN(c2ccc(Nc3nccc(-c4sc(C(C)C)nc4-c4cccc(NS(=O)(=O)c5cccc(Cl)c5)c4)n3)cn2)CC1
2. CCS(=O)(=O)c1ccc(OC)c(Nc2nccc(-c3c(-c4cccc(NC(=O)c5c(F)cccc5F)c4)nn4ncccc34)n2)c1
3. Oc1cc(Nc2ccnc3cc(I)ccc23)ccc1F
4. Nc1n[nH]c2cnc(-c3ccccc3)cc12
5. Nc1ncc(-c2ccc3nccc(-c4ccncc4)c3c2)cc1S(=O)(=O)N1CCOCC1
6. COc1ccc(Nc2nccc(N3CCC(NC(=O)Nc4cccc(OC)c4)C3)n2)cc1 (centres unmarked)

Result:
1: 76; 2: 0; 3: 0; 4: 27; 5: 0; 6: 13

Problem: Identify the reported %Inh for the following entry. c1ccc(-c2cnc3nccnn23)cc1
Result: 0
